src = patent US20210254056A1

Tested on: hepatocytes
Assay: RNA-seq of hepatocytes treated with Phase III failure compounds
Details: gene FAM111B; hepatocytes
Experimental: RNA-seq was performed to determine the effects of the compounds on hepatocytes. Significance was determined by the criteria of FPKM≥0.5, a log 2(fold-change)≥1, and a […].
property-name: RNA-seq results: FAM111B expression

{"columns": ["molecule", "target-or-test-system", "property-name", "observed-measurement"],
 "data": [
  ["O=P(O)(NCCCl)NCCCl [Palifosfamide]", "hepatocytes", "RNA-seq results: FAM111B expression", "−2.02"],
  ["CCN(CC)CCN(Cc1ccc(-c2ccc(C(F)(F)F)cc2)cc1)C(=O)Cn1c(SCc2ccc(F)cc2)nc(=O)c2c1CCC2", "hepatocytes", "RNA-seq results: FAM111B expression", "−2.15"],
  ["COc1cc2nccc(Oc3ccc(NC(=O)Nc4cc(C)on4)c(Cl)c3)c2cc1OC", "hepatocytes", "RNA-seq results: FAM111B expression", 0.01],
  ["NC(=O)c1ccc(I)c([N+](=O)[O-])c1", "hepatocytes", "RNA-seq results: FAM111B expression", 0.03],
  ["COc1cc(Nc2ncc(F)c(Nc3ccc4c(n3)N(COP(=O)(O)O)C(=O)C(C)(C)O4)n2)cc(OC)c1OC", "hepatocytes", "RNA-seq results: FAM111B expression", 1.04],
  ["Cn1cnc2c(F)c(Nc3ccc(Br)cc3Cl)c(C(=O)NOCCO)cc21", "hepatocytes", "RNA-seq results: FAM111B expression", "−1.27"],
  ["COc1cc2c(Oc3ccc4[nH]c(C)cc4c3F)ncnc2cc1OCCCN1CCCC1", "hepatocytes", "RNA-seq results: FAM111B expression", "−0.13"],
  ["CCC(CC)[C@H](NC(C)=O)[C@@H]1[C@H](O)[C@@H](C(=O)O)C[C@H]1NC(=N)N.O.O.O [peramivir (trihydrate), peramivir]", "hepatocytes", "RNA-seq results: FAM111B expression", "−0.44"],
  ["Cn1cc(C2=C(c3cn(C4CCN(Cc5ccccn5)CC4)c4ccccc34)C(=O)NC2=O)c2ccccc21", "hepatocytes", "RNA-seq results: FAM111B expression", 0.47],
  ["CCOC(=O)N1c2ccc(C(F)(F)F)cc2[C@@H](N(Cc2cc(C(F)(F)F)cc(C(F)(F)F)c2)C(=O)OC)C[C@H]1CC", "hepatocytes", "RNA-seq results: FAM111B expression", "−1.74"],
  ["C=CCNC1=C2C[C@@H](C)C[C@H](OC)[C@H](O)[C@@H](C)/C=C(\\C)[C@H](OC(N)=O)[C@@H](OC)/C=C\\C=C(/C)C(=O)NC(=CC1=O)C2=O", "hepatocytes", "RNA-seq results: FAM111B expression", "−1.24"]
]}

---

test system: hepatocytes; test: RNA-seq of hepatocytes treated with Phase III failure compounds; conditions: gene CDH1; hepatocytes
Where a name gives a salt, the structure may show the parent alone.

{"columns": ["compound", "target-or-test-system", "CDH1 expression, RNA-seq result"],
 "data": [
  ["C=CC(=O)Nc1cccc(Nc2nc(Nc3ccc(N4CCN(C(C)=O)CC4)cc3OC)ncc2C(F)(F)F)c1 [CO-1686 (Rociletinib), Rociletinib]", "hepatocytes", "−0.25"],
  ["CC(C)[C@H](O)C(=O)N[C@@H](C)C(=O)N[C@@H]1C(=O)N(C)CCc2ccccc21", "hepatocytes", 0.01],
  ["COc1nc(N)nc2c1ncn2[C@@H]1O[C@H](COP(=O)(N[C@@H](C)C(=O)OCC(C)(C)C)Oc2cccc3ccccc23)[C@@H](O)[C@@]1(C)O (stereo partly shown)", "hepatocytes", "−1.79"],
  ["CN(C)[C@@H]1C(O)=C(C(N)=O)C(=O)[C@@]2(O)C(O)=C3C(=O)c4c(O)c(NC(=O)CN5CCCC5)cc(F)c4C[C@H]3C[C@@H]12 [TP-434 (Eravacycline), Eravacycline]", "hepatocytes", "−0.59"],
  ["COCCOc1ccc(N2CCN(CCn3ncc4c3nc(N)n3nc(-c5ccco5)nc43)CC2)cc1", "hepatocytes", "−0.29"],
  ["O=C(N[C@H]1CN2CCC1CC2)c1cc2cccc(Cl)c2s1 [EVP-6124 (hydrochloride) (encenicline), encenicline]", "hepatocytes", "−0.12"],
  ["Fc1ccc(C(OCCN2CCN(CCCc3ccccc3)CC2)c2ccc(F)cc2)cc1 [Vanoxerine (dihydrochloride), Vanoxerine]", "hepatocytes", "−0.29"],
  ["Cn1c(COP(=O)(NCCBr)NCCBr)cnc1[N+](=O)[O-] [TH-302 (Evofosfamide), Evofosfamide]", "hepatocytes", "−0.56"],
  ["COc1cccc2c1C(=O)c1c(O)c3c(c(O)c1C2=O)C[C@@](O)(/C(CO)=N/NC(=O)CCCCCN1C(=O)C=CC1=O)C[C@@H]3O[C@H]1C[C@H](N)[C@H](O)[C@H](C)O1", "hepatocytes", "−0.12"],
  ["COc1nc(C)cnc1NS(=O)(=O)c1cccnc1-c1ccc(-c2nnco2)cc1", "hepatocytes", 0.50]
]}
